Where do these numbers come from? They come from patent US6172085A.

System: sodium channel
Type: binding, Wistar rats
Conditions: rat cerebral cortex membrane, 5 nM [^3 H]batracotoxinin A20-α-benzoate, 1 μM tetrodotoxin, 100 μg/mL scorpion toxin, 37° C., 1 hour
Counter-ions that a name gives are not always drawn.
Just a reminder that ties go to False: only IC50 strictly below 200 nM counts as True.

Prompt line: Find out if reported IC50 for Cc1c(C)c2c(c(C)c1N)CC(C)(CN1CCN(Cc3ccccc3)CC1)O2 (stereo not shown) [Example 6, trihydrochloride] is less than 200 nM
Response line: False

Prompt line: Find out if reported IC50 for Cc1c(C)c2c(c(C)c1N)CC(C)(CN1CCC(NC(c3ccccc3)c3ccccc3)CC1)O2 (stereo not shown) [Example 40, trihydrochloride] is less than 200 nM
Response line: True

Prompt line: Find out if reported IC50 for Cc1c(C)c2c(c(C)c1N)CC(C)(CN1CCC(COC(c3ccccc3)c3ccccc3)CC1)O2 (stereo not shown) [Example 24, oxalate] is less than 200 nM
Response line: False

Prompt line: Find out if reported IC50 for Cc1c(C)c2c(c(C)c1N)CC(C)(CN1CCC(CCNCCC(c3ccccc3)c3ccccc3)CC1)O2 (stereo not shown) [Example 42, trihydrochloride] is less than 200 nM
Response line: True

Prompt line: Find out if reported IC50 for Cc1c(C)c2c(c(C)c1N)CC(C)(CN1CCC(CCCOC(c3ccccc3)c3ccccc3)CC1)O2 (stereo not shown) [Example 26, oxalate] is less than 200 nM
Response line: False

Prompt line: Find out if reported IC50 for COc1ccc(CN2CCN(CC3(C)Cc4c(C)c(N)c(C)c(C)c4O3)CC2)cc1OC (stereo not shown) [Example 32, trihydrochloride] is less than 200 nM
Response line: False

====

System: sodium channel
Format: binding, Wistar rats
Details: rat cerebral cortex membrane, 5 nM [^3 H]batracotoxinin A20-α-benzoate, 1 μM tetrodotoxin, 100 μg/mL scorpion toxin, 37° C., 1 hour
Structures can show the parent of a compound that is named as a salt.
For each entry below, report its IC50 value.
Reply numerically in nM, unit not repeated.

Prompt line: Report IC50, nothing else, for this molecule: Cc1c(C)c2c(c(C)c1N)CC(C)(CN1CCc3ccccc3CC1)O2 (centres unmarked) [Reference Example 10, dihydrochloride]
Response line: 470

Prompt line: Report IC50, nothing else, for this molecule: COc1ccc(CN2CCN(CC3(C)Cc4c(C)c(N)c(C)c(C)c4O3)CC2)cc1 (centres unmarked) [Example 29, trihydrochloride]
Response line: 210

Prompt line: Report IC50, nothing else, for this molecule: Cc1c(C)c2c(c(C)c1N)CC(C)(CN1CCC(OC(c3ccc(F)cc3)c3ccc(F)cc3)CC1)O2 (centres unmarked) [Example 28, oxalate]
Response line: 220

Prompt line: Report IC50, nothing else, for this molecule: Cc1c(C)c2c(c(C)c1N)CC(C)(CN1CCC(CCc3ccccc3)CC1)O2 (centres unmarked)
Response line: 220

Prompt line: Report IC50, nothing else, for this molecule: Cc1ccc(CN2CCN(CC3(C)Cc4c(C)c(N)c(C)c(C)c4O3)CC2)cc1 (centres unmarked) [Example 34, trihydrochloride]
Response line: 420
